- test description: in vitro
- conditions: human, hela cells, % viability
endpoint name: viability at 28.5 h, 10 µM (%)
Express the result in % but write the number alone.

Exercise: Using the record for COCCN(Cc1ccncc1)C(=O)c1cc(C(C)C)n2ncnc2n1 , state its measured viability at 28.5 h, 10 µM.
Solution: 97.4

Exercise: Supply reported viability at 28.5 h, 10 µM belonging to this compound: O=C(O)c1cc(Nc2nc(N3CCOCC3)nc(N3CCOCC3)n2)ccc1Cl
Solution: 97.5

Exercise: Tell me viability at 28.5 h, 10 µM reported for COc1cc(CNc2cncc(-c3ccc(N)cc3)n2)cc(OC)c1OC
Solution: 96.5

Exercise: Find the measured viability at 28.5 h, 10 µM of CN1C(=O)[C@@H](OC(=O)c2cccnc2)C[C@H]1c1ccc(F)cc1 and report it.
Solution: 104

Exercise: State, in one line, measured viability at 28.5 h, 10 µM of Cn1cc(-c2nc(C(=O)NC3CCCN(c4ncccn4)C3)cs2)cn1 (centres unmarked)
Solution: 77.7

Exercise: Provide only the value of recorded viability at 28.5 h, 10 µM for FC(F)(F)c1cccc(Nc2cncc(-c3cccs3)n2)c1
Solution: 125

Exercise: # return recorded viability at 28.5 h, 10 µM for input CN(C)c1ccc(-c2nnnn2[C@H]2CO[C@H]3[C@@H]2OC[C@H]3O)cc1
Solution: 76.7

Exercise: Identify the reported viability at 28.5 h, 10 µM for the following entry. O=C(Cn1cccn1)NC(Cc1ccsc1)c1nccs1 (centres unmarked)
Solution: 94

Exercise: Check the records and state viability at 28.5 h, 10 µM for Cc1ccc(S(=O)(=O)Nc2ccc(C(C)C)cc2)cc1C(=O)O
Solution: 84.2

Exercise: For Cc1ccc(S(=O)(=O)N(CC(=O)NCC2CCCO2)c2ccccc2)cc1 (centres unmarked) , write its viability at 28.5 h, 10 µM.
Solution: 90.9

Exercise: Identify viability at 28.5 h, 10 µM associated with the compound c1ccc2c(c1)nc1n2CN(Cc2ccc3c(c2)OCO3)CN1
Solution: 99.1

Exercise: For the compound OC(CNCc1ccc2c(c1)OCO2)COc1ccc(Cl)c(Cl)c1 (centres unmarked) , give its reported viability at 28.5 h, 10 µM.
Solution: 89.3

Exercise: Give the measured viability at 28.5 h, 10 µM for CC1(C)NC(=O)N(CC(O)CN2CCCC2)C1=O (centres unmarked)
Solution: 96.3

Exercise: Let me know recorded viability at 28.5 h, 10 µM for COCCn1c(CN2Cc3ccc(Cl)cc3C2=O)nnc1[C@H]1C[C@@H](N)C1 , thanks.
Solution: 102

Exercise: Provide only the value of recorded viability at 28.5 h, 10 µM for CCN1C(=O)S/C(=C/c2ccc(OCc3cccc(C(=O)O)c3)cc2)C1=O
Solution: 106

Exercise: Check the records and state viability at 28.5 h, 10 µM for CSc1cccc(NC(=S)N2CCCCC2CCN2CCOCC2)c1 (centres unmarked)
Solution: 83.9

Exercise: State its viability at 28.5 h, 10 µM: Cc1nc(NC(=O)c2ccoc2)sc1C
Solution: 103

Exercise: Report viability at 28.5 h, 10 µM, nothing else, for this compound: Cc1ccc(S(=O)(=O)NCC(=O)Nc2ccc(Cl)nc2)cc1
Solution: 96.1

Exercise: Look up viability at 28.5 h, 10 µM of Cc1cc(C)c2c(c1)cc(C)c1nn(CC(=O)NC3CC3)c(=O)n12 and report it.
Solution: 83.5

Exercise: // Input: CC(C)(C)C(=O)CN1CCC(C(=O)NC(c2ccccc2)c2ccco2)CC1 (centres unmarked) . Output its viability at 28.5 h, 10 µM only.
Solution: 109

Exercise: Please list viability at 28.5 h, 10 µM recorded for the compound CCOC(=O)CN1CCCN(c2ccnc(OC3CCCCC3)n2)CC1
Solution: 90.9

Exercise: Provide only the value of recorded viability at 28.5 h, 10 µM for COCCCNC(NC(=O)c1ccc(C)cc1)C(Cl)(Cl)Cl (centres unmarked)
Solution: 107

Exercise: Give me measured viability at 28.5 h, 10 µM, please, for this compound: Nc1cccc(-c2cn([C@H]3C[C@@H](O)[C@@H](CO)O3)c(=O)[nH]c2=O)c1
Solution: 94.4

Exercise: State its viability at 28.5 h, 10 µM: O=C(NC1CCCC1)c1ccc2ncccc2c1
Solution: 90.2

Exercise: Identify the reported viability at 28.5 h, 10 µM for the following entry. COc1ccc(NC(=O)CSc2nnc(-c3ccncc3)n2-c2ccc(C)cc2)cc1Cl
Solution: 98.3

Exercise: Supply recorded viability at 28.5 h, 10 µM for O=C(O)CNC(=O)CN1C(=O)c2ccccc2C1=O here.
Solution: 98.6

Exercise: // Input: CCNc1nc(-c2ccc(S(C)(=O)=O)cc2)cn2ccnc12 . Output its viability at 28.5 h, 10 µM only.
Solution: 87.1

Exercise: Hello, please tell me recorded viability at 28.5 h, 10 µM for this one: CCc1nc2ccccc2n1C1CCN(C(=O)Cc2cccnc2)CC1
Solution: 100

Exercise: For the compound COCC(=O)NC(C)c1nc2ccccc2n1Cc1ccccc1C (centres unmarked) , report viability at 28.5 h, 10 µM.
Solution: 88.1

Exercise: Quote viability at 28.5 h, 10 µM reported for O=C(Cc1cc(F)cc(F)c1F)N1CCC(Sc2ccc(-c3ccccc3)cc2)CC1 please.
Solution: 94.5

Exercise: // fetch viability at 28.5 h, 10 µM given entry Clc1ccc(COc2nccnc2N2CCN(Cc3ccc4c(c3)OCO4)CC2)cc1Cl [CBK083078T]
Solution: 109

Exercise: Provide measured viability at 28.5 h, 10 µM value, entry: Nc1nc(NCCOc2ccccc2Cl)cc(C2CC(N)C2)n1 (centres unmarked)
Solution: 75.2

Exercise: Return reported viability at 28.5 h, 10 µM. Input compound: COc1ccc2c(c1)C(=O)NC1(CCN(C(=O)c3ccc(OC)c(C)c3)CC1)O2
Solution: 106

Exercise: Return value of viability at 28.5 h, 10 µM for input O=S(=O)(Nc1ccccc1)c1ccccc1I , no commentary.
Solution: 92.5

Exercise: Name the recorded viability at 28.5 h, 10 µM of the item CCOC(=O)c1cnc(Nc2nc3ccccc3o2)nc1CSc1ncccn1 in your answer.
Solution: 103

====

Hi there, I'd appreciate the recorded viability at 28.5 h, 10 µM for every entry that follows.
- test description: in vitro
- conditions: human, hela cells, % viability
Dear colleague, please return just the value in %, with no unit written.

Exercise: Assign viability at 28.5 h, 10 µM to the following record: COc1ccccc1C(=O)NCCNC(=O)c1ccccn1
Solution: 104

Exercise: Provide viability at 28.5 h, 10 µM value for the following molecule: O=c1[nH]c(=O)n(Cc2ccccc2)c2nc[nH]c12
Solution: 108

Exercise: Check the records and state viability at 28.5 h, 10 µM for COc1ccccc1CC(C)NC(=O)c1ccc2nc(C)[nH]c2c1 (stereo not drawn)
Solution: 86.1

Exercise: Tell me its viability at 28.5 h, 10 µM given CN1C(=O)/C(=C2\SC(=S)N(C(CC(=O)O)C(=O)O)C2=O)c2ccccc21 (stereo not drawn) as the entry.
Solution: 107

Exercise: For the molecule COc1cc(NC(=O)c2cc3nc(-c4cccs4)cc(C(F)(F)Cl)n3n2)c(C(C)=O)cc1OC , give its measured viability at 28.5 h, 10 µM value.
Solution: 100

Exercise: Give viability at 28.5 h, 10 µM for the following molecule: CC(C)n1cc(C(=O)N2CCCC(c3cc4ncccc4[nH]3)C2)cn1 (stereo not drawn)
Solution: 88.2

Exercise: // Input: O=C1CC(Nc2ccc(N3CCOCC3)cc2)C(=O)N1CCc1ccccc1 (stereo not drawn) . Output its viability at 28.5 h, 10 µM only.
Solution: 111

Exercise: Provide only the value of recorded viability at 28.5 h, 10 µM for COc1c(C)cnc(COC(=O)N2C[C@@H](C)O[C@@H](C)C2)c1C
Solution: 96.2

Exercise: State its viability at 28.5 h, 10 µM for this molecule: COc1ccc(CNC(C)C2COc3ccccc3O2)c(OC)c1 (stereo not drawn) [CBK074283G]
Solution: 88.8

Exercise: Provide viability at 28.5 h, 10 µM value for the following molecule: Cc1nn(CC(=O)N2CCN(C)CC2)c(=O)c2ccccc12
Solution: 93.3

Exercise: Look up and state reported viability at 28.5 h, 10 µM for Cn1ncc2c1CCCN(C(=O)c1cccc(C(F)(F)F)c1)C2
Solution: 87.3

Exercise: Check the records and state viability at 28.5 h, 10 µM for CCOC(=O)C1CCN(Cc2nc(-c3ccc(OC)c(OC)c3)no2)CC1
Solution: 92.4

Exercise: Return viability at 28.5 h, 10 µM for the following molecule: O=C(c1ccc(F)cc1)C1CCN(C(=O)c2cccnc2NCc2ccc3c(c2)OCO3)CC1
Solution: 113

Exercise: Assign viability at 28.5 h, 10 µM to the following record: O=C(Nc1ccc(C(=O)OCC(=O)c2cccc3ccccc23)cc1)c1ccccc1
Solution: 115

Exercise: For the molecule COc1ccc(OCCN2CCC3(CC2)CN(S(C)(=O)=O)c2ccccc23)cc1 , give its reported viability at 28.5 h, 10 µM.
Solution: 95.5

Exercise: Give the reported value of viability at 28.5 h, 10 µM for this record: CC(=O)c1ccc(C(=O)N(C)Cc2ccc(F)cc2)s1
Solution: 99.8

Exercise: Note down viability at 28.5 h, 10 µM recorded for CCCN1CCC(N2CCN(c3ccc([N+](=O)[O-])cc3)CC2)CC1
Solution: 96.3

Exercise: Specify viability at 28.5 h, 10 µM for O=C(C(c1ccccc1)c1ccccc1)N1CCN(c2ncccn2)CC1 and stop.
Solution: 89.4

Exercise: Identify measured viability at 28.5 h, 10 µM corresponding to NC(=O)COc1ccc(C2Nc3ccccc3C(=O)N2C2CC2)cc1 (stereo not drawn)
Solution: 98.2

Exercise: Retrieve viability at 28.5 h, 10 µM measured for CC(=O)NCCC(CN1CCOCC1)([N+](=O)[O-])[N+](=O)[O-] and print it.
Solution: 88.7

Exercise: Name the recorded viability at 28.5 h, 10 µM of the item O=C(CC1CCCC1)NCCn1nc(-c2cccs2)oc1=O in your answer.
Solution: 87.2

Exercise: Quick one: give measured viability at 28.5 h, 10 µM for C[C@H]1CN2CCCC2CN1Cc1ccc2c(c1)CCO2 (stereo partly drawn)
Solution: 104

Exercise: Specify measured viability at 28.5 h, 10 µM for COc1cc(OC)c(NC(=O)CN(C)S(=O)(=O)c2cc(Cl)ccc2Cl)cc1Cl .
Solution: 91.3

Exercise: For the molecule N=C(N)NCC(=O)N(CCc1cc(C(F)(F)F)cc(C(F)(F)F)c1)c1cccc2ccccc12 [CBK001122T] , give its reported viability at 28.5 h, 10 µM.
Solution: 105

Exercise: Fill in viability at 28.5 h, 10 µM for record COc1ccc(OC)c(NC(=O)c2cnc3scc(C)n3c2=O)c1
Solution: 90.5

Exercise: Read off the recorded viability at 28.5 h, 10 µM for CCn1c(C)nnc1SCCNc1cc(C(C)C)nc2ccnn12
Solution: 81.4

Exercise: Output measured viability at 28.5 h, 10 µM for this item: CC(C)(C)OC(=O)N1CCC(c2nc3ccc(F)cc3cc2N)CC1
Solution: 88.9

Exercise: Fill in reported viability at 28.5 h, 10 µM for this entry: O=C(O)c1cccc(NC(=O)c2cnc(-c3ccccc3)c(-c3ccco3)c2)c1
Solution: 93.4

Exercise: Please report viability at 28.5 h, 10 µM for the following molecule: Cc1csc(C(Cc2ccsc2)NC(=O)c2cnn(C)c2C)n1 (stereo not drawn)
Solution: 104

Exercise: Return value of viability at 28.5 h, 10 µM for input COc1ccc(Cl)c(NC(=O)NCCN2CCN(c3ccccc3)CC2)c1 , no commentary.
Solution: 90.7

Exercise: Using known records, supply viability at 28.5 h, 10 µM for CCOC(=O)C1=c2s/c(=C\c3cccnc3)c(=O)n2C(N)=C(C#N)C1c1cccnc1 (stereo not drawn)
Solution: 107

Exercise: Find the measured viability at 28.5 h, 10 µM of Cc1ccccc1-n1ncc2c(=O)n(CC(=O)Nc3ccccc3)cnc21 and report it.
Solution: 98.4

Exercise: Consider the molecule Cc1cc(C(=O)N(CCC#N)Cc2cccs2)no1 and give its recorded viability at 28.5 h, 10 µM.
Solution: 112

Exercise: Tell me measured viability at 28.5 h, 10 µM for O=C(O)c1ccc(CSc2nnnn2-c2ccccc2)cc1 please.
Solution: 85.1

Exercise: Assign viability at 28.5 h, 10 µM to the following record: O=C(CC1Oc2ccccc2NC1=O)Nc1ccc2c(c1)CN(Cc1ccccc1)C2 (stereo not drawn)
Solution: 88

Exercise: Respond only with viability at 28.5 h, 10 µM recorded for CC(C)C[C@H](NC(=O)N1CC(=O)Nc2ccccc21)C(=O)O
Solution: 94.8
